B1: ANKRD40 (parent)
chain: SLRENDFIEIELDRQELTYQELLR

Variants of: B1
measurementDescription: protein stability index of a GFP-peptide fusion (GPS, HEK-293T) (PSI 1-6); higher = more stable;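 further: lentivirally expressed fusions sorted by FACS into six bins by GFP to DsRed ratio, PSI derived from sequencing read proportions per bin multiplied by bin number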
testConditions: c terminus: a fixed tail appended
measure: protein stability index

sequenceChange: E21Y
result: 1.77

sequenceChange: E4D
result: 3.25

sequenceChange: L23P
result: 3.58

sequenceChange: E9P
result: 3.59

sequenceChange: L12N
result: 4.17

sequenceChange: Y19C
result: 2.93

sequenceChange: D13N
result: 3.17

sequenceChange: Q20F
result: 1.99

sequenceChange: I10K
result: 3.48

sequenceChange: L23M
result: 3.16

sequenceChange: E9W
result: 1.57

sequenceChange: L22N
result: 3.92

sequenceChange: D13R
result: 2.65

sequenceChange: E21K
result: 2.67

sequenceChange: R14M
result: 1.85

sequenceChange: N5R
result: 2.79

sequenceChange: T18Y
result: 2.59

sequenceChange: Y19V
result: 3.38

sequenceChange: L23N
result: 4.05

sequenceChange: E21H
result: 2.76

sequenceChange: I8G
result: 3.88

sequenceChange: R24L
result: 3.09

From: the supplement of paper PMC10567573
